system: Staph spp 12 strains; experiment: Detection of various strains of S. aureus in the presence of substrates; assay type: cell-based; conditions: 48 h
MEASUREMENT_NAME: No. of strains detected, Staph spp
Please reply with the value in numeric form only.

// known answers, use as guide
Report No. of strains detected, Staph spp for Cc1ccc2oc(-c3ccccc3[N+](=O)[O-])nc2c1 [Substrate 3] tested on Staph spp 12 strains. 12

Report No. of strains detected, Staph spp for O=[N+]([O-])c1ccc(Cl)cc1-c1nc2ccccc2o1 [Substrate 4] tested on Staph spp 12 strains. 12

Continuing:
Report No. of strains detected, Staph spp for COc1cc(-c2nc3ccccc3o2)c([N+](=O)[O-])cc1OC [Substrate 6] tested on Staph spp 12 strains. 12

Report No. of strains detected, Staph spp for CN1CCN(c2ccc([N+](=O)[O-])c(-c3nc4ccccc4o3)c2)CC1 [Substrate 8] tested on Staph spp 12 strains. 12

Report No. of strains detected, Staph spp for O=[N+]([O-])c1ccccc1-c1nc2cc(Cl)ccc2o1 [Substrate 2] tested on Staph spp 12 strains. 12

Report No. of strains detected, Staph spp for O=[N+]([O-])c1ccc(Cl)cc1-c1nc2ccccc2s1 [Substrate 21] tested on Staph spp 12 strains. 12

Report No. of strains detected, Staph spp for O=[N+]([O-])c1ccc(F)cc1-c1nc2ccccc2s1 [Substrate 15] tested on Staph spp 12 strains. 12

Report No. of strains detected, Staph spp for O=[N+]([O-])c1ccc(F)cc1-c1nc2ccccc2o1 [Substrate 7] tested on Staph spp 12 strains. 12

---

system: Acinetobacter baumanii ATCC 19606; test: Nitroreductase detection on Columbia agar, colonies read under UV; format: cell-based; design: key: − = no fluorescence detected; +/− = weak fluorescence; + = medium fluorescence; ++ = strong fluorescence; details: 100 mg/l in Columbia agar, 24 h 37° C., UV 360-365 nm
MEASUREMENT_NAME: Intensity of fluorescence, Acinetobacter baumanii ATCC 19606

What measured Intensity of fluorescence, Acinetobacter baumanii ATCC 19606 goes with O=[N+]([O-])c1ccccc1-c1nc2cc(Cl)ccc2o1 [Substrate 2] ? +/−

What measured Intensity of fluorescence, Acinetobacter baumanii ATCC 19606 goes with O=[N+]([O-])c1ccccc1-c1nc2ccccc2n1CCc1ccccc1 [Substrate 12] ? −

What measured Intensity of fluorescence, Acinetobacter baumanii ATCC 19606 goes with COc1cc(-c2nc3ccccc3o2)c([N+](=O)[O-])cc1OC [Substrate 6] ? −

What measured Intensity of fluorescence, Acinetobacter baumanii ATCC 19606 goes with O=[N+]([O-])c1ccc(F)cc1-c1nc2ccccc2s1 [Substrate 15] ? +

// switching to the query molecule
What measured Intensity of fluorescence, Acinetobacter baumanii ATCC 19606 goes with O=[N+]([O-])c1ccc(F)cc1-c1nc2ccccc2o1 [Substrate 7] ? +

---

system: Morganella morganii 462403 (wild); assay: Nitroreductase detection on Columbia agar, colonies read under UV; assay type: cell-based; design: key: fluorescence (intensity), Morganella morganii 462403 (wild) / Intensity of the fluorescence, Morganella morganii 462403 (wild): − = no fluorescence detected; +/− = weak fluorescence; + = medium fluorescence; ++ = strong fluorescence; conditions: 100 mg/l in Columbia agar, 24 h 37° C., UV 360-365 nm
MEASUREMENT_NAME: Intensity of fluorescence, Morganella morganii 462403

// known answers, use as guide
What measured Intensity of fluorescence, Morganella morganii 462403 goes with O=[N+]([O-])c1ccc(F)cc1-c1nc2ccccc2o1 [Substrate 7] ? ++

What measured Intensity of fluorescence, Morganella morganii 462403 goes with O=[N+]([O-])c1ccccc1-c1nc2cc(Cl)ccc2o1 [Substrate 2] ? +/−

What measured Intensity of fluorescence, Morganella morganii 462403 goes with COc1cc(-c2nc3ccccc3o2)c([N+](=O)[O-])cc1OC [Substrate 6] ? +/−

What measured Intensity of fluorescence, Morganella morganii 462403 goes with O=[N+]([O-])c1ccccc1-c1nc2ccccc2n1CCc1ccccc1 [Substrate 12] ? +/−

// switching to the query compound
What measured Intensity of fluorescence, Morganella morganii 462403 goes with O=[N+]([O-])c1ccc(F)cc1-c1nc2ccccc2s1 [Substrate 15] ? ++
